system: RXF 393; experiment: cells; type: functional, cell-based; conditions: Homo sapiens
Description: SANGER: Inhibition of human RXF393 cell growth in a cell viability assay.
pIC50: −log10 of the molar value.
attributeMeasured: pIC50

Exam item: // map CCCS(=O)(=O)Nc1ccc(F)c(C(=O)c2c[nH]c3ncc(Cl)cc23)c1F [PLX-4720] to recorded pIC50 (system: RXF 393);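 also: growth inhibition of human RXF 393 cells, read out with a cell viability assay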
Marked response: < 5.00

Exam item: Also need CCNC(=O)c1noc(-c2cc(C(C)C)c(O)cc2O)c1-c1ccc(CN2CCOCC2)cc1 [LUMINESPIB] , thanks.
Marked response: 8.07

Exam item: Also need C/C(O)=C(\C#N)C(=O)Nc1cc(Br)ccc1Br , thanks.
Marked response: < 4.80

====

tested on: DU-4475; assay: cells; type: functional, cell-based; details: Homo sapiens
Description: SANGER: Inhibition of human DU-4475 cell growth in a cell viability assay.
attributeMeasured: pIC50
Formally, pIC50 is defined as -log10 of the concentration c, with c in mol/L.

Exam item: Which pIC50 is reported for this compound? CC[C@@]1(O)C(=O)OCc2c1cc1n(c2=O)Cc2cc3ccccc3nc2-1 [CAMPTOTHECIN]
Marked response: 8.51

Exam item: Also need CCCS(=O)(=O)Nc1ccc(F)c(C(=O)c2c[nH]c3ncc(Cl)cc23)c1F [PLX-4720] , thanks.
Marked response: 7.13

Exam item: Also need C[C@]12O[C@H](C[C@]1(O)CO)n1c3ccccc3c3c4c(c5c6ccccc6n2c5c31)CNC4=O [LESTAURTINIB] , thanks.
Marked response: 7.01

====

system: IPC-298; assay: SANGER: Inhibition of human IPC-298 cell growth in a cell viability assay.; assay type: functional, cell-based
attributeMeasured: pIC50
Formally, pIC50 is defined as -log10 of the concentration c, with c in mol/L.

Exam item: // map Fc1cc(-c2cc[nH]/c(=N/c3ccc(-n4cnc(N5CCOCC5)n4)cc3)n2)cc(N2CCOCC2)c1 to recorded pIC50 (system: IPC-298)
Marked response: 6.07

Exam item: Also need N#C/C(=C1/Nc2ccccc2S1)c1ccnc(NCCc2cccnc2)n1 , thanks.
Marked response: 5.13

====

system: 639-V; experiment: cells; assay type: functional, cell-based; details: Homo sapiens
Description: SANGER: Inhibition of human 639-V cell growth in a cell viability assay.
attributeMeasured: IC50 (µM)
Write it as a number; the unit µM goes unstated.

Exam item: Which IC50 is reported for this compound? CC(C)=CC[C@@H](O)C1=CC(=O)c2c(O)ccc(O)c2C1=O
Marked response: 0.265

Exam item: Also need Fc1cc(-c2cc[nH]/c(=N/c3ccc(-n4cnc(N5CCOCC5)n4)cc3)n2)cc(N2CCOCC2)c1 , thanks.
Marked response: 0.22

Exam item: Also need CC[C@]1(O)C[C@@H]2CN(CCc3c([nH]c4ccccc34)[C@@](C(=O)OC)(c3cc4c(cc3OC)N(C)[C@H]3[C@@](O)(C(=O)OC)[C@H](OC(C)=O)[C@]5(CC)C=CCN6CC[C@]43[C@@H]65)C2)C1 , thanks.
Marked response: 0.00561

====

Provide the reported pIC50 of each item.
tested on: ES3; assay: cells; type: functional, cell-based; details: Homo sapiens
Description: SANGER: Inhibition of human ES3 cell growth in a cell viability assay.
pIC50: −log10 of the molar value.

Exam item: // map COc1cc(Nc2c(C#N)cnc3cc(OCCCN4CCN(C)CC4)c(OC)cc23)c(Cl)cc1Cl to recorded pIC50 (system: ES3)
Marked response: < 5.70

Exam item: Also need O=c1[nH]c2ccccc2n1C1CCN(Cc2ccc(-c3nc4cc5[nH]cnc5cc4nc3-c3ccccc3)cc2)CC1 , thanks.
Marked response: < 5.59

Exam item: Also need CCCS(=O)(=O)Nc1ccc(F)c(C(=O)c2c[nH]c3ncc(Cl)cc23)c1F , thanks.
Marked response: < 5.00

Exam item: Also need CO[C@@]12[C@H](COC(N)=O)C3=C(C(=O)C(C)=C(N)C3=O)N1C[C@@H]1N[C@@H]12 , thanks.
Marked response: > 7.20

Exam item: Also need Cc1n[nH]c2ccc(-c3cncc(OC[C@@H](N)Cc4c[nH]c5ccccc45)c3)cc12 , thanks.
Marked response: < 5.99

Exam item: Also need CCn1c(-c2nonc2N)nc2cnc(Oc3cccc(NC(=O)c4ccc(OCCN5CCOCC5)cc4)c3)cc21 [GSK-269962A] , thanks.
Marked response: < 5.60

Exam item: Also need C[C@]1(c2nc3c(C(N)=O)cccc3[nH]2)CCCN1 , thanks.
Marked response: < 5.30

Exam item: Also need C/C=C(/C)C(=O)O[C@H]1C(C)=C2[C@H]([C@@H]1OC(=O)CCCCCCC)[C@@](C)(OC(C)=O)C[C@H](OC(=O)CCC)[C@@]1(O)[C@H]2OC(=O)[C@@]1(C)O , thanks.
Marked response: 8.39

Exam item: Also need COc1cc(C)c(Sc2cnc(NC(=O)c3ccc(CNC(C)C(C)(C)C)cc3)s2)cc1C(=O)N1CCN(C(C)=O)CC1 (configuration not stated) , thanks.
Marked response: 5.05

Exam item: Also need CC(C)=CC[C@@H](O)C1=CC(=O)c2c(O)ccc(O)c2C1=O , thanks.
Marked response: 6.18

Exam item: Also need O=c1cc(N2CCOCC2)oc2c(-c3cccc4c3sc3ccccc34)cccc12 , thanks.
Marked response: < 5.70

Exam item: Also need NC(=O)c1ncn([C@@H]2O[C@H](COP(=O)(O)O)[C@@H](O)[C@H]2O)c1N , thanks.
Marked response: 2.96
